Molecular target: GDP-bound KRAS wild-type protein (Homo sapiens, UniProt P01116)
Sequence (P01116 whole entry): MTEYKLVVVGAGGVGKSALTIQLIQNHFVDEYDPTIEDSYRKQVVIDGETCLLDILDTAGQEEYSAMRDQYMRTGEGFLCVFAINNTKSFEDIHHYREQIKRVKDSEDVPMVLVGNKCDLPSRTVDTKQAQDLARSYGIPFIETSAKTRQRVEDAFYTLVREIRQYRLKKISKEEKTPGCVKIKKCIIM
Test: Binding to KRAS by surface plasmon resonance (SPR), Single Cycle Kinetics
Details: SPR, Single Cycle Kinetics, GDP-bound KRAS wild-type protein; read-out: KRAS KD
Where a SMILES comes first, the peptide text is derived from it. Bridges are numbered along the chain shown (N, C = ends). [ ]: non-standard residue; d: D form. The star is where a group is joined. hPhe(3-Cl-4-CF3) = N[C@@H](CCc1ccc(C(F)(F)F)c(Cl)c1)C(=O)O; NPrPhe(4-CF3) = CCCN[C@@H](Cc1ccc(C(F)(F)F)cc1)C(=O)O; NMeGly(cPent) = CN[C@H](C(=O)O)C1CCCC1; Ac4c(3,3-Me2) = CC1(C)CC(N)(C(=O)O)C1; NMeD = CN[C@@H](CC(=O)O)C(=O)O; NMeL = CN[C@@H](CC(C)C)C(=O)O; Morpholide = C1CN(*)CCO1; Sar = CNCC(=O)O
Assay endpoint: pKd
Just so you know, pKd here is -log10 of the concentration in molar units; reply with that number alone.

The compound listed as CCO[C@@H]1C[C@H]2C(=O)NC3(CCC3)C(=O)N(C)[C@@H](C3CCCC3)C(=O)N(C)[C@H](C(=O)N(C)C)CC(=O)N(C)[C@@H](CC)C(=O)N[C@@H]([C@@H](C)CC)C(=O)N(C)CC(=O)N(C)[C@H]3C/C=C\CCN(C3=O)[C@@H](Cc3ccc(C(F)(F)F)cc3)C(=O)N(C)CC(=O)N[C@@H](CCc3ccc(C(F)(F)F)c(Cl)c3)C(=O)N2C1 shows pKd equal to 10.06

# pKd (compound: CC[C@H](C)[C@@H]1NC(=O)[C@H](CC)N(C)C(=O)C[C@@H](C)N(C)C(=O)[C@H](C2CCCC2)N(C)C(=O)C2(CCCC2)NC(=O)[C@@H]2CCCN2C(=O)[C@H](CCc2cc(F)c(C(F)(F)F)c(F)c2)NC(=O)CN(C)C(=O)[C@H](Cc2ccc(C(F)(F)F)cc2)N2CC/C=C\C[C@@H](C2=O)N(C)C(=O)CN(C)C1=O ) is 9.34

Record CCCN1C(=O)CN(C)C(=O)CN(C)C(=O)[C@H]([C@@H](C)OCC)NC(=O)[C@H](CC(C)C)N(C)C(=O)C[C@@H](C(=O)N2CCOCC2)N(C)C(=O)[C@H](C2CCCC2)N(C)C(=O)C2(CC(C)(C)C2)NC(=O)[C@@H]2CCCN2C(=O)[C@H](CCc2ccc(C(F)(F)F)c(Cl)c2)NC(=O)CN(C)C(=O)[C@@H]1Cc1ccc(C(F)(F)F)cc1 [PP1964] ([NMeL]T(Et)[Sar][Sar][NPrPhe(4-CF3)][Sar][hPhe(3-Cl-4-CF3)]P[Ac4c(3,3-Me2)][NMeGly(cPent)][NMeD]-Morpholide; lactam N-11) , field pKd: 9.72

Looking up CCCN(C)C(=O)[C@@H]1CC(=O)N(C)[C@@H](CC(F)F)C(=O)N[C@@H]([C@@H](C)CC)C(=O)N(C)CC(=O)N(C)[C@H]2C/C=C\CCN(C2=O)[C@@H](Cc2ccc(C(F)(F)F)cc2)C(=O)N(C)CC(=O)N[C@@H](CCc2ccc(C(F)(F)F)c(OC)c2)C(=O)N2C[C@H](OCC)C[C@H]2C(=O)NC2(CCC2)C(=O)N(C)[C@@H](C2CCCC2)C(=O)N1C , I found its pKd recorded as 9.89

// pKd value for CCO[C@@H]1C[C@H]2C(=O)NC3(CC(C)(C)C3)C(=O)N(C)[C@@H](C3CCCC3)C(=O)N(C)[C@H](C(=O)N(CC)CC)CC(=O)N(C)[C@@H](COC)C(=O)N[C@@H]([C@@H](C)CC)C(=O)N(C)CC(=O)N(C)[C@H]3C/C=C\CCN(C3=O)[C@@H](Cc3ccc(C)cc3)C(=O)N(C)CC(=O)N[C@@H](CCc3ccc(C(F)(F)F)c(OC)c3)C(=O)N2C1 : 9.64

Measured values drawn from patent US20240158446A1 for this set.
